Target: human Src enzyme (Homo sapiens, UniProt P12931)
Construct: purchased Carna Biosciences, Inc. 08-173
Sequence (P12931 whole entry): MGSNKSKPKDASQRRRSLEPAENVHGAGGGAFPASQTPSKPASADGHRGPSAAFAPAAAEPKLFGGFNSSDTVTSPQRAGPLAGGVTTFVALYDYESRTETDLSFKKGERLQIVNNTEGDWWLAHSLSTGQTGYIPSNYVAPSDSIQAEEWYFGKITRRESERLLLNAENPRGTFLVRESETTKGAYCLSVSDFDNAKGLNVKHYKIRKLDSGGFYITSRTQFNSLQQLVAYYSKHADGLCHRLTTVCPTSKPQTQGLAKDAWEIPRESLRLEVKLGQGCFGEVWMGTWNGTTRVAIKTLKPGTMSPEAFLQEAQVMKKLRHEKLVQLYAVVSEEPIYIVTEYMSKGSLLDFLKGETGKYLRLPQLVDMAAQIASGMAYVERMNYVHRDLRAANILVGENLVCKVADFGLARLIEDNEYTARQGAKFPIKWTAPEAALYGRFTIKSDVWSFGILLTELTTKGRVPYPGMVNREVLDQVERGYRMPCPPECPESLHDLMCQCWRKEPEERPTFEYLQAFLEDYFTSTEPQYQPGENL
Test: Src enzyme inhibitory activity (time-resolved fluorometry, biotinylated peptide phosphorylation)
Type: biochemical
Conditions: biotinylated peptide phosphorylation, read-out: SRC_IC50
Procedure: 2. Src Enzyme Inhibitory Activity Src inhibitory activity was determined based on activity of inhibiting phosphorylation reaction of a biotinylated peptide (EGPWLEEEEEAYGWMDF) using a human Src enzyme (manufactured by Carna Biosciences, Inc., cat 08-173). The phosphorylated biotinylated peptide was detected by time-resolved fluorometry using an anti-phosphorylated tyrosine antibody conjugated to europium cryptate, and streptavidin conjugated to XL665, an allophycocyanin derivative. […]
Consider the cut-off 30 nM. If the recorded IC50 is strictly smaller, the label is Y; if not, the label is N.

Known results for compounds:
{"columns": ["item_smiles", "label"],
 "data": [
  ["Cc1cc(Oc2ccccc2F)ncc1-n1ncc(C(=O)c2cc3cc(F)c(NS(=O)(=O)c4cccc(F)n4)cc3[nH]2)c1N", "N"],
  ["Cc1cc2cc(C(=O)c3cnn(-c4c(C)cc(Oc5ccccc5F)cc4F)c3N)[nH]c2cc1NS(=O)(=O)CC(=O)N1CCOCC1", "N"],
  ["CCN(c1cc2[nH]c(C(=O)c3cnn(-c4cnc(Oc5c(F)cccc5F)cc4C)c3N)cc2cc1F)S(C)(=O)=O", "Y"],
  ["COc1cc2cc(C(=O)c3cnn(-c4ccc(Oc5ccccc5F)cc4C)c3N)[nH]c2cc1NS(C)(=O)=O", "Y"],
  ["Cc1cc2cc(C(=O)c3cnn(-c4ccc(Oc5cccc(F)c5F)cc4C)c3N)[nH]c2cc1N1CCCS1(=O)=O", "Y"]
]}

Find out if reported IC50 for Cc1cc(-n2ncc(C(=O)c3cc4cc(C)c(N5C(=O)NC6(CC6)C5=O)cc4[nH]3)c2N)ccc1Oc1ccccc1F is less than 30 nM
N

---

biological target: human Src enzyme (Homo sapiens, UniProt P12931); construct: purchased Carna Biosciences, Inc. 08-173; assay: Src enzyme inhibitory activity (time-resolved fluorometry, biotinylated peptide phosphorylation); format: biochemical; details: read-out: SRC_IC50
Consider the cut-off 20 nM. If the recorded IC50 is strictly smaller, the label is YES; if not, the label is NO.

Known results for molecules:
{"columns": ["molecule", "label"],
 "data": [
  ["Cc1cc(Oc2c(F)cccc2F)ncc1-n1ncc(C(=O)c2cc3cc(OC4CCN(C(C)C)CC4)c(N4CCOCC4)cc3[nH]2)c1N [Example 5-1-185]", "YES"],
  ["Cc1cc2cc(C(=O)c3cnn(-c4cnc(Oc5c(F)cccc5F)cc4C)c3N)[nH]c2cc1N1CC(C)(C)NS1(=O)=O [Example 5-1-313]", "NO"],
  ["Cc1cc(-n2ncc(C(=O)c3cc4cc(OC(F)F)c(N5C(=O)NC(C)(C)C5=O)cc4[nH]3)c2N)ccc1Oc1ccccc1F [Example 5-1-179]", "NO"],
  ["Cc1ccccc1Oc1cc(C)c(-n2ncc(C(=O)c3cc4cc(NS(C)(=O)=O)c(F)cc4[nH]3)c2N)cn1 [Example 5-1-047]", "YES"],
  ["Cc1cc(-n2ncc(C(=O)c3cc4cc(OCC(F)F)c(C5CCOCC5)cc4[nH]3)c2N)ccc1Oc1ccccc1F [Example 5-1-258]", "NO"]
]}

API: the following record is the query input.
Find out if reported IC50 for Cc1cc(Oc2ccccc2F)ccc1-n1ncc(C(=O)c2cc3cc(N4CCOCC4)c(N4CCOCC4)cc3[nH]2)c1N [Example 5-1-094] is less than 20 nM
YES
